Target: Alpha-2A adrenergic receptor (Homo sapiens, UniProt P08913)
Assay: Agonist activity at human wild-type alpha 2A receptor expressed in CHO-K1 cells assessed as cAMP level by HTRF assay
pEC50: −log10 of the molar value.
Measured pEC50 of individual entries

Name the recorded pEC50 for CB1C=Cc2cccc(OCC(O)CNC(C)C)c2N1 (configuration not stated) . < 5.30

Name the recorded pEC50 for CB1C=Cc2c(cccc2OCC(O)CN(C)C)N1 (configuration not stated) . < 5.30

---

Target: D(1A) dopamine receptor (Homo sapiens)
Sequence (P21728 whole entry): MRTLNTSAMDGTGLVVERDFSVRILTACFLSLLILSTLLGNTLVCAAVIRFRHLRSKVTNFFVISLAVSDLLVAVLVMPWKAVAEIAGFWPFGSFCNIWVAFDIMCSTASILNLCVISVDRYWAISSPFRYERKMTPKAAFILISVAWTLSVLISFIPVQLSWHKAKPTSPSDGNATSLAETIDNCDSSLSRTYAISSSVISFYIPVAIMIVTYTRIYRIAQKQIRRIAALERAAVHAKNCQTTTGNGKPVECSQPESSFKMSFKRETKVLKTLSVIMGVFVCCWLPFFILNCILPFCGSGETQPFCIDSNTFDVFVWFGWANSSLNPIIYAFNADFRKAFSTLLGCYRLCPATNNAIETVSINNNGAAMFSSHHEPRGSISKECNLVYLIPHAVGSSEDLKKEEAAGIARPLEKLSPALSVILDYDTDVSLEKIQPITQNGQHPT
Experiment: Agonist activity at human wild-type D1 receptor expressed in CHO cells assessed as cAMP level by HTRF assay
Measured EC50 of individual entries

Observed EC50 on D(1A) dopamine receptor (Homo sapiens) for CB1C=Cc2c(cccc2OCC(O)CN(C)C)N1 (configuration not stated) , please. > 5.01 µM

Observed EC50 on D(1A) dopamine receptor (Homo sapiens) for CB1C=Cc2cccc(OCC(O)CNC(C)C)c2N1 (configuration not stated) , please. > 5.01 µM

---

Test: Chemical stability of compound in DMSO assessed as compound remaining at 10 mg/ml after 2 days at room temperature
Type: physicochemical
Settings: read-out: Stability
Measured remaining at 48 h, 10 mg/ml of individual entries
Report as a plain number; the unit % is understood.

Guide cases for remaining at 48 h, 10 mg/ml, answers given:
{"COMPOUND": "CB1C=Cc2c(cccc2OCC(O)CN(C)C)N1 (stereo not drawn)", "remaining at 48 h, 10 mg/ml / %": 96}
{"COMPOUND": "CB1C=Cc2cccc(OCC(O)CNC(C)C)c2N1 (stereo not drawn)", "remaining at 48 h, 10 mg/ml / %": 96}

Next compound, remaining at 48 h, 10 mg/ml to be filled in.
Name the recorded remaining at 48 h, 10 mg/ml for CC(C)NCC(O)COc1cccc2ccccc12 (stereo not drawn) [PROPRANOLOL] . 100

---

Measured pEC50 of individual entries
Molecular target: Alpha-1A adrenergic receptor (Homo sapiens)
Test: Agonist activity at human wild-type alpha 1A receptor expressed in CHO cells assessed as calcium level by HTRF assay
pEC50: −log10 of the molar value.

{"COMPOUND": "CB1C=Cc2c(cccc2OCC(O)CN(C)C)N1 (configuration not stated)", "pEC50": "< 5.30"}

Name the recorded pEC50 for CB1C=Cc2cccc(OCC(O)CNC(C)C)c2N1 (configuration not stated) . < 5.30

---

Assay: Fraction unbound in mouse plasma at 5 uM after 4.5 hrs by LC-MS/MS analysis
Assay type: ADME, cell-free
OBSERVATION_TYPE: fraction unbound at 4.5 h, 5 µM
// keep it numeric: no unit symbol after the value

{"MOLECULE": "CB1C=Cc2cccc(OCC(O)CNC(C)C)c2N1 (stereo not drawn)", "fraction unbound at 4.5 h, 5 µM": 0.074}
{"MOLECULE": "CC(C)NCC(O)COc1cccc2ccccc12 (stereo not drawn)", "fraction unbound at 4.5 h, 5 µM": 0.212}

Name the recorded fraction unbound at 4.5 h, 5 µM for CB1C=Cc2c(cccc2OCC(O)CN(C)C)N1 (stereo not drawn) . 0.21

---

Assay: Ratio of drug level in brain to plasma in Swiss mouse at 5 mg/kg, sc
Assay type: ADME, organism-based
Conditions: read-out: BPR
OBSERVATION_TYPE: Kp
// keep it numeric: no unit symbol after the value

Name the recorded Kp for CB1C=Cc2cccc(OCC(O)CNC(C)C)c2N1 (stereo not drawn) . 13

Name the recorded Kp for CB1C=Cc2c(cccc2OCC(O)CN(C)C)N1 (stereo not drawn) . 19

Name the recorded Kp for CC(C)NCC(O)COc1cccc2ccccc12 (stereo not drawn) [PROPRANOLOL] . 23

---

Target: Cytochrome P450 2C19 (Homo sapiens)
Sequence (P33261 whole entry): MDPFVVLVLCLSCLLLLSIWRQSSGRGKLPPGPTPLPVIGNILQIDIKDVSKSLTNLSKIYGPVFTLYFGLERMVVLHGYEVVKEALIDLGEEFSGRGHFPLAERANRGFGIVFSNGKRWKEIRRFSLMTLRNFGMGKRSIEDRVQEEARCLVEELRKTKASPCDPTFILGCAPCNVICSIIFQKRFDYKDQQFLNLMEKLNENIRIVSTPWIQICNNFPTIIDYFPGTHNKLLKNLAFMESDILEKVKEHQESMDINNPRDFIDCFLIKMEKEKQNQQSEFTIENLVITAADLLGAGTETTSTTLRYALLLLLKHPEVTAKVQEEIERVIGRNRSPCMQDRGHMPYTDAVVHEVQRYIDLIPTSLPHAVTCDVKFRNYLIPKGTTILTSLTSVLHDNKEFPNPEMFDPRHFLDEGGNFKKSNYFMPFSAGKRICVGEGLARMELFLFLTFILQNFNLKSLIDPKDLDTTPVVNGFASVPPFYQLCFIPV
Test: Inhibition of human CYP2C19 by LC-MS analysis
Format: ADME
Measured IC50 of individual entries

Guide cases for IC50, answers given:
{"COMPOUND": "CB1C=Cc2cccc(OCC(O)CNC(C)C)c2N1 (stereo not drawn)", "IC50": "> 10 µM"}
{"COMPOUND": "CC(C)NCC(O)COc1cccc2ccccc12 (stereo not drawn) [PROPRANOLOL]", "IC50": "> 10 µM"}

Name the recorded IC50 for CB1C=Cc2c(cccc2OCC(O)CN(C)C)N1 (stereo not drawn) . > 10 µM

---

Measured EC50 of individual entries
Biological target: Cholecystokinin receptor type A (Homo sapiens)
Sequence (P32238 whole entry): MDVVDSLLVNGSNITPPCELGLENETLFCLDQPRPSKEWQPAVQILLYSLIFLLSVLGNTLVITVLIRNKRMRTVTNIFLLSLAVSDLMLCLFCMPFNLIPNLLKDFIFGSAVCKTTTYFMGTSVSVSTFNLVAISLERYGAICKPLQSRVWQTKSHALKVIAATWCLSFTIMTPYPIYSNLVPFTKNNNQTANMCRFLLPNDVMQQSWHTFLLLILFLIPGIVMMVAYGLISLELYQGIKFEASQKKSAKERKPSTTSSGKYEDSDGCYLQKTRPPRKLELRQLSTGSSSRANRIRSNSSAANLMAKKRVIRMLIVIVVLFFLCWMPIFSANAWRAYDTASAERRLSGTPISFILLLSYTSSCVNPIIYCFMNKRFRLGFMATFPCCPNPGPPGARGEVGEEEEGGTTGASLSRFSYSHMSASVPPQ
Assay: Agonist activity at human wild-type CCKA receptor expressed in CHO-K1 cells assessed as calcium level by FDSS assay

{"COMPOUND": "CB1C=Cc2c(cccc2OCC(O)CN(C)C)N1 (configuration not stated)", "EC50": "> 5.01 µM"}

Observed EC50 on Cholecystokinin receptor type A (Homo sapiens) for CB1C=Cc2cccc(OCC(O)CNC(C)C)c2N1 (configuration not stated) , please. > 5.01 µM

---

Measured pIC50 of individual entries
Biological target: Alpha-1A adrenergic receptor (Homo sapiens, UniProt P35348)
Sequence (P35348 whole entry): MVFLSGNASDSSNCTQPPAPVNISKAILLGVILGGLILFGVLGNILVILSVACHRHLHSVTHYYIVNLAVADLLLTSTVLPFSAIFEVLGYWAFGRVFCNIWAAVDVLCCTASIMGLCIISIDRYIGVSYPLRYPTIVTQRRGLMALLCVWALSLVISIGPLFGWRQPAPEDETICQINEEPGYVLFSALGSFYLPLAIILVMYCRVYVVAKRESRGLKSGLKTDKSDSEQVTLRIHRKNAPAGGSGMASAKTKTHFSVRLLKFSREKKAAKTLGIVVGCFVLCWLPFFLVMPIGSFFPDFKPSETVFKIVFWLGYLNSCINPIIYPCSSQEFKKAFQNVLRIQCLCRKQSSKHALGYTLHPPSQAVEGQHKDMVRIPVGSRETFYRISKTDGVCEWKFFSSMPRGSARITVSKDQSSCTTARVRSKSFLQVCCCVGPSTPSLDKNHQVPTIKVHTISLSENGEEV
Test: Antagonist activity at human wild-type alpha 1A receptor expressed in CHO cells assessed as EP-induced calcium by HTRF assay
Format: functional, cell-based
pIC50: −log10 of the molar value.

{"COMPOUND": "CB1C=Cc2c(cccc2OCC(O)CN(C)C)N1 (configuration not stated)", "TARGET_SYSTEM": "Alpha-1A adrenergic receptor (Homo sapiens, UniProt P35348)", "pIC50": "< 5.30"}

Name the recorded pIC50 for CB1C=Cc2cccc(OCC(O)CNC(C)C)c2N1 (configuration not stated) . < 5.30

---

Molecular target: Alpha-2A adrenergic receptor (Homo sapiens, UniProt P08913)
Sequence (P08913 whole entry): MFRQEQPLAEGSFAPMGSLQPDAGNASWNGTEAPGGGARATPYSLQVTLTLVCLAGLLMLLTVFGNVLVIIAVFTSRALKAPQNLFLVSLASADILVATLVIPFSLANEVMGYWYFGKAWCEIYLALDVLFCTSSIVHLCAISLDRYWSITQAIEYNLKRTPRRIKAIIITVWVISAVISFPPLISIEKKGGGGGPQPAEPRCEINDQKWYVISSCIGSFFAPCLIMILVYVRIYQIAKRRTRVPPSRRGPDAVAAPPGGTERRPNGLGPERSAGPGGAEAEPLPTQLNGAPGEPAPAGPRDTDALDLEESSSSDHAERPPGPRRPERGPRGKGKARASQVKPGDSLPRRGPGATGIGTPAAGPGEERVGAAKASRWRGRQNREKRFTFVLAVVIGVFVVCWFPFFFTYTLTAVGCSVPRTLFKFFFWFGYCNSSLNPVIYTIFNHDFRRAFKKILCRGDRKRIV
Experiment: Antagonist activity at human wild-type alpha 2A receptor expressed in CHO-K1 cells assessed as epinephrine-induced cAMP by HTRF assay
pIC50: −log10 of the molar value.
Measured pIC50 of individual entries

{"COMPOUND": "CB1C=Cc2cccc(OCC(O)CNC(C)C)c2N1 (configuration not stated)", "pIC50": "< 5.30"}

Next compound, pIC50 to be filled in.
Name the recorded pIC50 for CB1C=Cc2c(cccc2OCC(O)CN(C)C)N1 (configuration not stated) . < 5.30

---

Biological target: UniProt:P28222
Sequence (P28222 whole entry): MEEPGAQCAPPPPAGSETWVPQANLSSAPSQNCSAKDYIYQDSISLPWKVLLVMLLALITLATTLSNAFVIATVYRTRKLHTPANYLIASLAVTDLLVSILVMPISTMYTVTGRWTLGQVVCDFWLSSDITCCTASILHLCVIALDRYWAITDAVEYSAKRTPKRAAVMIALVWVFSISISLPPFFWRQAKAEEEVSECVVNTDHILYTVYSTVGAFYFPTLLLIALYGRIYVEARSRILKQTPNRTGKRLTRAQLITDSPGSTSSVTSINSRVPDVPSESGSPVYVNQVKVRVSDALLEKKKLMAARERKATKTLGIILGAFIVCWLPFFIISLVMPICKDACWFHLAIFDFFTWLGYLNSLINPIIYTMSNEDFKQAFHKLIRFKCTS
Experiment: Agonist activity at human 5-HT1B receptor expressed in CHO-K1 cells assessed as cAMP level by HTRF assay
Measured EC50 of individual entries

{"COMPOUND": "CB1C=Cc2cccc(OCC(O)CNC(C)C)c2N1 (configuration not stated)", "EC50": "> 5.01 µM"}

Name the recorded EC50 for CB1C=Cc2c(cccc2OCC(O)CN(C)C)N1 (configuration not stated) . > 5.01 µM

---

Molecular target: Cytochrome P450 2C9 (Homo sapiens, UniProt P11712)
Sequence (P11712 whole entry): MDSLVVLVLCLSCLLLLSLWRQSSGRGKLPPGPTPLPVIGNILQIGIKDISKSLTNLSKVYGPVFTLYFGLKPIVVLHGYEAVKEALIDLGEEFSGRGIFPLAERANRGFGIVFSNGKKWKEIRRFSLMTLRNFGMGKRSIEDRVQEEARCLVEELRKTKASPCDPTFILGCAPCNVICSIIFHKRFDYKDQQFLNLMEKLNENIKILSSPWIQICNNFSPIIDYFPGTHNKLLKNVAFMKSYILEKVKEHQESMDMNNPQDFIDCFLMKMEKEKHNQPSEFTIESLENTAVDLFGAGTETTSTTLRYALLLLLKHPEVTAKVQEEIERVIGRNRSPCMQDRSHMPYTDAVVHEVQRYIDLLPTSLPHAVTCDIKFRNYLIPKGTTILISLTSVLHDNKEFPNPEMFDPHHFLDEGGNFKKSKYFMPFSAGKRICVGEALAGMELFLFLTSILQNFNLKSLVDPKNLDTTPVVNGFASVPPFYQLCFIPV
OBSERVATION_TYPE: IC50

Observed IC50 on Cytochrome P450 2C9 (Homo sapiens, UniProt P11712) for CC(C)NCC(O)COc1cccc2ccccc12 (stereo unspecified) , please. > 10 µM

---

Measured pEC50 of individual entries
Biological target: Muscarinic acetylcholine receptor M1 (Homo sapiens, UniProt P11229)
Sequence (P11229 whole entry): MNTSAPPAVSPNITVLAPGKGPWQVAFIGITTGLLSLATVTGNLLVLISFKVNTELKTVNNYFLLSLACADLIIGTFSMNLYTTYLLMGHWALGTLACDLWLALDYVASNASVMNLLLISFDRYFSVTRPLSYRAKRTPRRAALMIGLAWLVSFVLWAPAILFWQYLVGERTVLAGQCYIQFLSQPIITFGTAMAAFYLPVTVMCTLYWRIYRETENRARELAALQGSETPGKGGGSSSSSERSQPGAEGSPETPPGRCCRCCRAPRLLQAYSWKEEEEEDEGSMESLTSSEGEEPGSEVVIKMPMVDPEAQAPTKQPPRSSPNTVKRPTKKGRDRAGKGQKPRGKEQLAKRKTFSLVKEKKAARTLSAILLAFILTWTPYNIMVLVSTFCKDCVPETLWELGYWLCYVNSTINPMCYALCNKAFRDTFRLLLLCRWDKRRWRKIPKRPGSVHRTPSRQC
Experiment: Agonist activity at human wild-type M1 receptor expressed in CHO-K1 cells assessed as calcium level by FDSS assay
pEC50: −log10 of the molar value.

Name the recorded pEC50 for CB1C=Cc2cccc(OCC(O)CNC(C)C)c2N1 (configuration not stated) . < 5.30

Name the recorded pEC50 for CB1C=Cc2c(cccc2OCC(O)CN(C)C)N1 (configuration not stated) . < 5.30

---

Assay: Chemical stability of compound in 0.1N NaOH assessed as compound remaining at 10 mg/ml after 2 days
Format: physicochemical
Conditions: read-out: Stability
Measured remaining at 48 h, 10 mg/ml of individual entries
Report as a plain number; the unit % is understood.

Guide cases for remaining at 48 h, 10 mg/ml, answers given:
{"MOLECULE": "CB1C=Cc2cccc(OCC(O)CNC(C)C)c2N1 (stereo not drawn)", "remaining at 48 h, 10 mg/ml [%]": 82}
{"MOLECULE": "CB1C=Cc2c(cccc2OCC(O)CN(C)C)N1 (stereo not drawn)", "remaining at 48 h, 10 mg/ml [%]": 83}

Name the recorded remaining at 48 h, 10 mg/ml for CC(C)NCC(O)COc1cccc2ccccc12 (stereo not drawn) [PROPRANOLOL] . 100
